assayedTarget: Human V1b receptor (Homo sapiens, UniProt P47901)
Sequence (P47901 whole entry): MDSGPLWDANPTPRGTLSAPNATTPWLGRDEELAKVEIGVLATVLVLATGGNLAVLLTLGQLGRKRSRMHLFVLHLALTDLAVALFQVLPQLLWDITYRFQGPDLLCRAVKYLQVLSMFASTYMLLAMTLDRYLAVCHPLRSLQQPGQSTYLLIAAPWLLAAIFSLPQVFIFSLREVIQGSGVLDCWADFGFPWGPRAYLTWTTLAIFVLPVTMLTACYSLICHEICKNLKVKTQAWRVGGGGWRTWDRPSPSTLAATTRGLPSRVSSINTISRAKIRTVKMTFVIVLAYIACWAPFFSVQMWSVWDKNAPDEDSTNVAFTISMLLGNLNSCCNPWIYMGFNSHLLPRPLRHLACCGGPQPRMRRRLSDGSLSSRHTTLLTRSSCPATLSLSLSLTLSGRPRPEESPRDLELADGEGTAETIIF
assayText: Binding test for V1b receptor ([3H]AVP displacement, crude membrane preparation)
Design: expressed in transfected cells; host or cells: 293FT cells (Invitrogen), transient expression; crude membrane preparation
assayConditions: [3H]AVP 0.4 to 1 nmol/L; membranes of 293FT cells transiently expressing human V1b receptor; room temperature, 60 minutes
Protocol: Binding Test for V1b Receptor Human V1b receptor was transiently expressed in 293FT cells (Invitrogen). […] The radioactivity remaining on the filter was measured using TopCount (PerkinElmer Inc.). The radioactivity in the presence of 10 μmol/L of unlabeled AVP was defined as 0%, and the radioactivity in the absence of unlabeled AVP was defined as 100%. […]
pIC50: −log10 of the molar value. Counter-ions that a name gives are not always drawn.
We begin with a simple list: items and their reported pIC50.

See these solved cases before continuing.
{"molecule": "COc1cc(-c2nn(-c3ccc(CCN4CCC5CCCCC5C4)cc3)c(=O)n2CC(=O)NC(C)C)ccc1F (stereo not drawn) [Ca-15]", "pIC50": "7.00 to 8.00"}
{"molecule": "COc1cc(-c2nn(-c3ccc(CCN4CCC(C(F)(F)F)CC4)cc3)c(=O)n2CC(=O)NC(C)C)ccc1F [Ca-19, trifluoroacetate]", "pIC50": "6.00 to 7.00"}

Turning now to a further record.
Indicate its recorded pIC50; the molecule in question is COc1cc(-c2nn(-c3ccc(CCN4CCCC(OC)C4)cc3)c(=O)n2CC(=O)NC(C)C)ccc1F (stereo not drawn) [Ca-11]
7.00 to 8.00

* * *

assayedTarget: Human V1b receptor (Homo sapiens, UniProt P47901)
assayText: Binding test for V1b receptor ([3H]AVP displacement, crude membrane preparation)
Parameters: expressed in transfected cells; host or cells: 293FT cells (Invitrogen), transient expression; crude membrane preparation
assayConditions: [3H]AVP 0.4 to 1 nmol/L; membranes of 293FT cells transiently expressing human V1b receptor; room temperature, 60 minutes
Where a name gives a salt, the structure may show the parent alone.
parameterMeasured: IC50

{"molecule": "COc1cc(-c2nn(-c3ccc(CCN4CCCC4)cc3)c(=O)n2CC(=O)NC(C)C)ccc1F [Ca-24, formate]", "IC50": "10 to 100 nM"}
{"molecule": "COc1cc(-c2nn(-c3ccc(CCN4CCC(F)(F)CC4)cc3)c(=O)n2CC(=O)NC(C)C)ccc1F [Ca-18, trifluoroacetate]", "IC50": "10 to 100 nM"}
{"molecule": "COc1cc(-c2nn(-c3ccc(CCN4CCN(C(C)=O)CC4)cc3)c(=O)n2CC(=O)NC(C)C)ccc1F [Ca-26, trifluoroacetate]", "IC50": "100 to 1000 nM"}

Turning now to a further record.
Indicate its recorded IC50; the molecule in question is COc1cc(-c2nn(-c3ccc(CCN4CCC(C)(O)CC4)cc3)c(=O)n2CC(=O)NC(C)C)ccc1F [Ca-27, trifluoroacetate]
100 to 1000 nM
